Where these numbers come from: paper PMC10359491

# target: human neutrophil elastase (HNE) (Homo sapiens, UniProt P08246 30-267)
# Sequence (P08246 30-267): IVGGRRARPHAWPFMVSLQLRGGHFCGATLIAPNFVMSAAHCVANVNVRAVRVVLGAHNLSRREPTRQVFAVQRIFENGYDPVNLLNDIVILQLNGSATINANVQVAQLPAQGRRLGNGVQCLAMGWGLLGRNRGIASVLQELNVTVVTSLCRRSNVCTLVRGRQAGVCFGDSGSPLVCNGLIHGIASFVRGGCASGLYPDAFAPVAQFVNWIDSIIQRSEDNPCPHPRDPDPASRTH
# protocol notes: ELISA; HNE immobilized; ELISA: PBS pH 7.4, 5 mM MgCl2, 10 mM KCl, 0.01% Tween 20, 20 min (temperature not stated); inhibition: 50 mM Tris pH 7.5, 150 mM NaCl, 10 mM KCl, 5 mM MgCl2, 0.02% Tween 20, 37 C
# test settings: protein: commercial; label: biotin (ELISA); predicted: 1 G4, 3 hairpin loops (not tested)
parameter: Kd

The recorded Kd for entry aptamer E6 (ssDNA) DNA: CATGCTTCCCCAGGGAGATGAGGACGGGCGTGGGGATGGGTATGGTGCAACTCCCGAGGAACATGCGTCGCAAAC equals 20.5 nM
